// GI50 collected for SF-268

// solved cases for GI50 follow
Compound	GI50
COc1cc(-c2cc(-c3nc4cc(Cl)ccc4[nH]3)[nH]n2)cc(OC)c1OC	3.6 µM
COc1ccc2[nH]c(-c3cc(-c4cc(OC)c(OC)c(OC)c4)n[nH]3)nc2c1	2.74 µM
Fc1ccc2[nH]c(-c3cc(-c4ccc5c(c4)OCO5)n[nH]3)nc2c1	6.05 µM
c1ccc2[nH]c(-c3cc(-c4ccc5c(c4)OCO5)n[nH]3)nc2c1	4.77 µM
COc1cc(-c2cc(-c3nc4cc(Cl)c(Cl)cc4[nH]3)[nH]n2)cc(OC)c1OC [10f]	3.95 µM

Next up:
Request: Given the compound COc1cc(-c2cc(-c3nc4ccccc4[nH]3)[nH]n2)cc(OC)c1OC , what is its reported GI50?
Response: 6.43 µM

###

// GI50 collected for Renal cancer cell lines
Numbers only, in nM.

// solved cases for GI50 follow
Compound	Value units	GI50
c1ccc2[nH]c(-c3cc(-c4ccc5c(c4)OCO5)n[nH]3)nc2c1 [6g]	nM	2040
COc1cc(-c2cc(-c3nc4cc(Cl)ccc4[nH]3)[nH]n2)cc(OC)c1OC [8f]	nM	3160
COC(=O)Nc1nc2ccc(C(=O)c3cccs3)cc2[nH]1 [Nocodazole, reference compound]	nM	107

// for each compound in input: emit GI50
1. COc1cc(-c2cc(-c3nc4cc(Cl)c(Cl)cc4[nH]3)[nH]n2)cc(OC)c1OC [10f]
2. COc1cc(-c2cc(-c3nc4ccccc4[nH]3)[nH]n2)cc(OC)c1OC [6f]
3. COc1ccc2[nH]c(-c3cc(-c4cc(OC)c(OC)c(OC)c4)n[nH]3)nc2c1 [9f]
4. Fc1ccc2[nH]c(-c3cc(-c4ccc5c(c4)OCO5)n[nH]3)nc2c1 [7g]

Response:
[3550, 2630, 2240, 4570]

###

// GI50 collected for HOP-62
One number for each entry, in µM.

Compound	GI50 / µM
COc1cc(-c2cc(-c3nc4cc(Cl)c(Cl)cc4[nH]3)[nH]n2)cc(OC)c1OC [10f]	3.43
c1ccc2[nH]c(-c3cc(-c4ccc5c(c4)OCO5)n[nH]3)nc2c1	8.46
COc1cc(-c2cc(-c3nc4cc(Cl)ccc4[nH]3)[nH]n2)cc(OC)c1OC	3.11
Fc1ccc2[nH]c(-c3cc(-c4ccc5c(c4)OCO5)n[nH]3)nc2c1	8.54
COc1cc(-c2cc(-c3nc4ccccc4[nH]3)[nH]n2)cc(OC)c1OC	3.54

Next up:
Request: Given the compound COc1ccc2[nH]c(-c3cc(-c4cc(OC)c(OC)c(OC)c4)n[nH]3)nc2c1 , what is its reported GI50?
Response: 2.02

###

// GI50 collected for UACC-62
Give bare numbers, in nM.

Compound	GI50 / nM
c1ccc2[nH]c(-c3cc(-c4ccc5c(c4)OCO5)n[nH]3)nc2c1	3080

// for each compound in input: emit GI50
1. Fc1ccc2[nH]c(-c3cc(-c4ccc5c(c4)OCO5)n[nH]3)nc2c1
2. COc1ccc2[nH]c(-c3cc(-c4cc(OC)c(OC)c(OC)c4)n[nH]3)nc2c1
3. COc1cc(-c2cc(-c3nc4cc(Cl)ccc4[nH]3)[nH]n2)cc(OC)c1OC
4. COc1cc(-c2cc(-c3nc4ccccc4[nH]3)[nH]n2)cc(OC)c1OC
5. COc1cc(-c2cc(-c3nc4cc(Cl)c(Cl)cc4[nH]3)[nH]n2)cc(OC)c1OC [10f]

Response:
4770
1120
1970
1640
1940

###

I'd appreciate it if you could supply GI50 values for the items below.
Test system: ACHN
Give bare numbers, in µM.

// for each compound in input: emit GI50
1. COc1ccc2[nH]c(-c3cc(-c4cc(OC)c(OC)c(OC)c4)n[nH]3)nc2c1
2. Fc1ccc2[nH]c(-c3cc(-c4ccc5c(c4)OCO5)n[nH]3)nc2c1
3. COc1cc(-c2cc(-c3nc4cc(Cl)ccc4[nH]3)[nH]n2)cc(OC)c1OC
4. c1ccc2[nH]c(-c3cc(-c4ccc5c(c4)OCO5)n[nH]3)nc2c1

Response:
1: 2.63; 2: 3.64; 3: 2.96; 4: 4.33

// for each compound in input: emit GI50
1. COc1cc(-c2cc(-c3nc4cc(Cl)c(Cl)cc4[nH]3)[nH]n2)cc(OC)c1OC [10f]
2. COc1cc(-c2cc(-c3nc4ccccc4[nH]3)[nH]n2)cc(OC)c1OC

Response:
1: 3.54; 2: 2.77

###

// GI50 collected for RXF 393
One number for each entry, in nM.

Molecule	Test system	GI50 / nM
COc1ccc2[nH]c(-c3cc(-c4cc(OC)c(OC)c(OC)c4)n[nH]3)nc2c1 [9f]	RXF 393	2490
c1ccc2[nH]c(-c3cc(-c4ccc5c(c4)OCO5)n[nH]3)nc2c1 [6g]	RXF 393	2360
COc1cc(-c2cc(-c3nc4cc(Cl)ccc4[nH]3)[nH]n2)cc(OC)c1OC [8f]	RXF 393	3260
COc1cc(-c2cc(-c3nc4cc(Cl)c(Cl)cc4[nH]3)[nH]n2)cc(OC)c1OC [10f]	RXF 393	3170
COc1cc(-c2cc(-c3nc4ccccc4[nH]3)[nH]n2)cc(OC)c1OC [6f]	RXF 393	1770

Request: Given the molecule Fc1ccc2[nH]c(-c3cc(-c4ccc5c(c4)OCO5)n[nH]3)nc2c1 [7g] , what is its reported GI50?
Response: 3020

###

// GI50 collected for SNB-75
One number for each entry, in µM.

// solved cases for GI50 follow
Compound	Value units	GI50
c1ccc2[nH]c(-c3cc(-c4ccc5c(c4)OCO5)n[nH]3)nc2c1	µM	1.01
COc1ccc2[nH]c(-c3cc(-c4cc(OC)c(OC)c(OC)c4)n[nH]3)nc2c1	µM	2.23

// for each compound in input: emit GI50
1. COc1cc(-c2cc(-c3nc4ccccc4[nH]3)[nH]n2)cc(OC)c1OC
2. COc1cc(-c2cc(-c3nc4cc(Cl)c(Cl)cc4[nH]3)[nH]n2)cc(OC)c1OC [10f]
3. Fc1ccc2[nH]c(-c3cc(-c4ccc5c(c4)OCO5)n[nH]3)nc2c1
4. COc1cc(-c2cc(-c3nc4cc(Cl)ccc4[nH]3)[nH]n2)cc(OC)c1OC

Response:
1: 2.83; 2: 3.12; 3: 2.8; 4: 2.71

###

// log10 GI50 collected for Prostate cancer cell lines
The base-10 logarithm of GI50, taken with GI50 in nM, is what appears here.

Compound	log10 GI50
c1ccc2[nH]c(-c3cc(-c4ccc5c(c4)OCO5)n[nH]3)nc2c1	3.71
COc1cc(-c2cc(-c3nc4cc(Cl)c(Cl)cc4[nH]3)[nH]n2)cc(OC)c1OC [10f]	3.48
COC(=O)Nc1nc2ccc(C(=O)c3cccs3)cc2[nH]1 [Nocodazole, reference compound]	1.16

// for each compound in input: emit log10 GI50
1. Fc1ccc2[nH]c(-c3cc(-c4ccc5c(c4)OCO5)n[nH]3)nc2c1
2. COc1cc(-c2cc(-c3nc4cc(Cl)ccc4[nH]3)[nH]n2)cc(OC)c1OC
3. COc1ccc2[nH]c(-c3cc(-c4cc(OC)c(OC)c(OC)c4)n[nH]3)nc2c1
4. COc1cc(-c2cc(-c3nc4ccccc4[nH]3)[nH]n2)cc(OC)c1OC

Response:
[3.75, 3.46, 3.19, 3.46]

###

Test system: CCRF-CEM
I'd appreciate it if you could supply GI50 values for the items below.
Field note: include the unit after the figure.

// solved cases for GI50 follow
Molecule	Test system	GI50
c1ccc2[nH]c(-c3cc(-c4ccc5c(c4)OCO5)n[nH]3)nc2c1	CCRF-CEM	2.52 µM
Fc1ccc2[nH]c(-c3cc(-c4ccc5c(c4)OCO5)n[nH]3)nc2c1	CCRF-CEM	2.65 µM
COc1cc(-c2cc(-c3nc4cc(Cl)c(Cl)cc4[nH]3)[nH]n2)cc(OC)c1OC [10f]	CCRF-CEM	2.35 µM
COc1ccc2[nH]c(-c3cc(-c4cc(OC)c(OC)c(OC)c4)n[nH]3)nc2c1	CCRF-CEM	1.29 µM
COc1cc(-c2cc(-c3nc4ccccc4[nH]3)[nH]n2)cc(OC)c1OC	CCRF-CEM	2.12 µM

Next up:
Request: Given the molecule COc1cc(-c2cc(-c3nc4cc(Cl)ccc4[nH]3)[nH]n2)cc(OC)c1OC , what is its reported GI50?
Response: 2.48 µM

###

Tested on: fifty six human tumor cell lines
Experiment: NCI human tumor cell line screen (48 h, SRB), all cell lines
Conditions: human tumor cell lines, mean over the panel; total growth inhibition
Attribute measured: Log10 TGI mean graph midpoint (MG_MID)
One number for each entry.

Compound	Log10 TGI mean graph midpoint (MG_MID)
COc1cc(-c2cc(-c3nc4cc(Cl)c(Cl)cc4[nH]3)[nH]n2)cc(OC)c1OC [10f]	−4.88

// for each compound in input: emit Log10 TGI mean graph midpoint (MG_MID)
1. COc1cc(-c2cc(-c3nc4cc(Cl)ccc4[nH]3)[nH]n2)cc(OC)c1OC
2. c1ccc2[nH]c(-c3cc(-c4ccc5c(c4)OCO5)n[nH]3)nc2c1
3. COc1ccc2[nH]c(-c3cc(-c4cc(OC)c(OC)c(OC)c4)n[nH]3)nc2c1
4. Fc1ccc2[nH]c(-c3cc(-c4ccc5c(c4)OCO5)n[nH]3)nc2c1
5. COc1cc(-c2cc(-c3nc4ccccc4[nH]3)[nH]n2)cc(OC)c1OC

Response:
["−4.93", "−4.75", "−5.17", "−4.19", "−4.83"]
